Target: MPSK1 (Homo sapiens)
Construct: gene STK16; catalytic domain-containing construct
Sequence (O75716 whole entry, the tested form may be a part): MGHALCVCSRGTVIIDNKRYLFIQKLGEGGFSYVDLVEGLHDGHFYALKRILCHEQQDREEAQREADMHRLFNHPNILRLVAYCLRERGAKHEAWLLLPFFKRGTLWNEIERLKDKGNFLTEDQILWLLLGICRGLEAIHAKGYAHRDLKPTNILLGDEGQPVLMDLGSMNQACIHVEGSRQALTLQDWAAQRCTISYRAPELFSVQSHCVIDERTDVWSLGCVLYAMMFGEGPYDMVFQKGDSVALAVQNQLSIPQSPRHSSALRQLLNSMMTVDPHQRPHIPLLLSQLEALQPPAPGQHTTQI
Assay: biochemical
Design: Thermal shift assay (DSF, SYPRO Orange), 2 uM kinase domain, mean delta Tm of triplicates versus DMSO
Conditions: read-out: MPSK1
Output 1 for records whose ΔTm at 12.5 µM is lower than 0.9 °C, -1 for records at or above 0.9 °C.

compound: COc1cc2nccc(Oc3ccc(NC(=O)C4(C(=O)Nc5ccc(F)cc5)CC4)cc3)c2cc1OC [Cabozantinib]
class-label: 1

compound: NC1(c2ccc(-c3nc4ccn5c(=O)[nH]nc5c4cc3-c3ccccc3)cc2)CCC1 [MK-2206]
class-label: -1

compound: COc1cc(Nc2ncc3c(n2)-c2ccc(Cl)cc2C(c2c(F)cccc2OC)=NC3)ccc1C(=O)O [Alisertib]
class-label: -1

compound: Cn1cnc2c(F)c(Nc3ccc(Br)cc3Cl)c(C(=O)NOCCO)cc21 [Selumetinib]
class-label: 1

compound: Cc1cn(-c2cc(NC(=O)c3ccc(C)c(Nc4nccc(-c5cccnc5)n4)c3)cc(C(F)(F)F)c2)cn1 [Nilotinib]
class-label: -1

compound: CCOc1cc2ncc(C#N)c(Nc3ccc(OCc4ccccn4)c(Cl)c3)c2cc1NC(=O)/C=C/CN(C)C [Neratinib]
class-label: -1

compound: CCN1CCN(c2ccc(Nc3cc(N(C)C(=O)Nc4c(Cl)c(OC)cc(OC)c4Cl)ncn3)cc2)CC1 [NVP-BGJ398]
class-label: 1

compound: O=C(O)c1ccc(-c2c[nH]c3ncc(-c4ccccc4)cc23)cc1C1CCCC1 [GSK650394]
class-label: -1

compound: Cc1c(NC(=O)OC[C@@H]2COCCN2)cn2ncnc(Nc3ccc4c(cnn4Cc4cccc(F)c4)c3)c12 [BMS-599626]
class-label: 1

compound: CN1CCN(c2ccc3nc(-c4c(N)c5c(F)cccc5[nH]c4=O)[nH]c3c2)CC1 [Dovitinib]
class-label: 1

compound: C[C@@H](Oc1ccc2[nH]nc(/C=C/c3cnn(CCO)c3)c2c1)c1c(Cl)cncc1Cl [LY2874455]
class-label: -1

compound: CNC(=O)c1cc(Oc2ccc(NC(=O)Nc3ccc(Cl)c(C(F)(F)F)c3)cc2)ccn1 [Sorafenib]
class-label: 1

compound: CCn1c(C(=O)N(C2CC2)C2CC2)cc2c3c(ncn3C)c(Nc3cc(C)n(C)n3)nc21 [BMS-911543]
class-label: -1

compound: Cn1c(=O)n(-c2ccc(C(C)(C)C#N)cc2)c2c3cc(-c4cnc5ccccc5c4)ccc3ncc21 [Dactolisib]
class-label: -1

compound: COc1ncc(-c2ccc3nccc(-c4ccnnc4)c3c2)cc1NS(=O)(=O)c1ccc(F)cc1F [GSK2126458]
class-label: -1

compound: CCn1c(=O)c(-c2cc[nH]n2)cc2c(C)nc(N)nc21 [Voxtalisib]
class-label: 1

compound: O=c1sn(-c2cccc3ccccc23)c(=O)n1Cc1ccccc1 [Tideglusib]
class-label: 1

compound: O=C(Cc1ccc(-c2ccc(OCCN3CCOCC3)cc2)cn1)NCc1ccccc1 [KX2-391]
class-label: 1

compound: Cc1ccc(-n2nc(C(C)(C)C)cc2NC(=O)Nc2ccc(OCCN3CCOCC3)c3ccccc23)cc1 [Doramapimod]
class-label: 1

compound: CNC(=O)c1ccccc1Sc1ccc2c(/C=C/c3ccccn3)n[nH]c2c1 [Axitinib]
class-label: -1

compound: FC(F)c1nc2ccccc2n1-c1nc(N2CCOCC2)nc(N2CCOCC2)n1 [ZSTK474]
class-label: -1
